# credit: patent US7304093B2

System: female obese Zucker rats
Assay: Serum lipid and glycemic control variables in chow-fed obese female Zucker rats, daily oral gavage for two weeks
Assay type: in vivo, rat
Details: Rattus norvegicus, 336 h; 30 mg/kg daily oral, 2 wk; Table 9; read-out: NonHDL-Cholesterol, Percent Change from Pre-Treatment
# change in vivo at 30 mg/kg annotations
OBSERVATION_TYPE: change in vivo at 30 mg/kg (%)

* CC(CO)(CCCCC(=O)CCCCC(C)(CO)c1ccccc1)c1ccccc1 (centres unmarked) [Compound 214d] | 30
* Cc1ccc(C(C)(CCCCC(=O)CCCCC(C)(C(=O)O)c2ccc(C)cc2)C(=O)O)cc1 (centres unmarked) [Compound 210e] | 47
* CC(C)(CCCCC(=O)CCCC(C)(C)C(=O)O)C(=O)O [Compound 225] | 92
* CC(C)(CO)CCCCC(=O)CCCCC(C)(CO)c1ccccc1 (centres unmarked) [Compound 218] | -8
* CC(C)(CO)CCCCCCC(=O)CCCCCCC(C)(C)CO [Compound 214i] | -32

----------
melting point: recorded values
OBSERVATION_TYPE: melting point

• CC(CCCC(=O)CCCC(C)(C(=O)O)c1ccccc1)(C(=O)O)c1ccccc1 (centres unmarked) [Compound 210b] = 44 to 46 °C
• CC(C)(CCCCC(=O)CCCCC1(C(=O)O)CC1)C(=O)O [Compound 107c] = 49 to 52 °C
• CC(C)(Cc1cccc(C(=O)c2cccc(CC(C)(C)C(=O)O)c2)c1)C(=O)O = 46 to 48 °C
• CC(C)(CCCCCC(=O)CCCCCC1(C(=O)O)CC1)C(=O)O [Compound 107k] = 65 to 66 °C
• CC(C)(CCCCC(=O)CCCCC(C)(C)C(=O)O)C(=O)O [Compound 210c] = 60 to 61.5 °C

----------
System: female obese Zucker rats
Assay: Serum lipid and glycemic control variables in chow-fed obese female Zucker rats, daily oral gavage for two weeks
Assay type: in vivo, rat
Details: Rattus norvegicus, 168 h; 30 mg/kg daily oral, 1 wk; Table 9; read-out: NonHDL-Cholesterol, Percent Change from Pre-Treatment
Items are presented alongside their recorded change in vivo at 30 mg/kg.
OBSERVATION_TYPE: change in vivo at 30 mg/kg (%)

• Cc1ccc(C(C)(CCCCC(=O)CCCCC(C)(C(=O)O)c2ccc(C)cc2)C(=O)O)cc1 (centres unmarked) [Compound 210e] = 0
• CC(C)(CO)CCCCCCC(=O)CCCCCCC(C)(C)CO [Compound 214i] = -50
• CC(CO)(CCCCC(=O)CCCCC(C)(CO)c1ccccc1)c1ccccc1 (centres unmarked) [Compound 214d] = -30
• CC(C)(CCCCC(=O)CCCC(C)(C)C(=O)O)C(=O)O = -17
• CC(C)(CO)CCCCC(=O)CCCCC(C)(CO)c1ccccc1 (centres unmarked) = 17

----------
OBSERVATION_TYPE: melting point

* O=C(CCCCC1(C(=O)O)CC1)CCCCC1(C(=O)O)CC1 [Compound 107d] | 132 to 134 °C
* CC(C)(CCCCC(=O)CCCC(C)(C)C(=O)O)C(=O)O | 72 to 73 °C
* O=C(CCCCC1(C(=O)O)CCCC1)CCCCC1(C(=O)O)CCCC1 [Compound 107g] | 99 to 103 °C
* CC(C)(CCCCCC(=O)CCCCC(C)(C)C(=O)O)C(=O)O | 61 to 62 °C
* O=C(CCCCCC1(C(=O)O)CCCC1)CCCCCC1(C(=O)O)CCCC1 [Compound 107m] | 78 to 85 °C

----------
melting point values for the compounds below.
OBSERVATION_TYPE: melting point

* Cc1ccc(C(C)(CCCCC(=O)CCCCC(C)(C(=O)O)c2ccc(C)cc2)C(=O)O)cc1 (centres unmarked) [Compound 210e] | 48 to 50 °C
* O=C(CCCCCC1(C(=O)O)CC1)CCCCCC1(C(=O)O)CC1 [Compound 107l] | 122 to 123 °C
* CC(C)(CCCCCCCC(=O)CCCCCCCC(C)(C)C(=O)O)C(=O)O [Compound 107n] | 74 to 77 °C
* O=C(CCCCC1(C(=O)O)CCC1)CCCCC1(C(=O)O)CCC1 [Compound 107f] | 69 to 70 °C
* CC(C)(CCCCC(=O)CCCCC1(C(=O)O)CCC1)C(=O)O [Compound 107e] | 53 to 55 °C

----------
System: female obese Zucker rats
Assay: Serum lipid and glycemic control variables in chow-fed obese female Zucker rats, daily oral gavage for two weeks
Type: in vivo, rat
Settings: Rattus norvegicus, 336 h; 30 mg/kg daily oral, 2 wk; Table 9; read-out: TG, Percent Change from Pre-Treatment
Some molecules, each annotated with its measured change in vivo at 30 mg/kg.
OBSERVATION_TYPE: change in vivo at 30 mg/kg (%)

• Cc1ccc(C(C)(CCCCC(=O)CCCCC(C)(C(=O)O)c2ccc(C)cc2)C(=O)O)cc1 (centres unmarked) [Compound 210e] = 12
• CC(C)(CO)CCCCC(=O)CCCCC(C)(CO)c1ccccc1 (centres unmarked) [Compound 218] = -7
• CC(CO)(CCCCC(=O)CCCCC(C)(CO)c1ccccc1)c1ccccc1 (centres unmarked) [Compound 214d] = 20
• CC(C)(CCCCC(=O)CCCC(C)(C)C(=O)O)C(=O)O [Compound 225] = -22
• CC(C)(CO)CCCCCCC(=O)CCCCCCC(C)(C)CO [Compound 214i] = -33

----------
Reported change in vivo at 100 mg/kg values are given for each entry in this list.
System: female obese Zucker rats
Test: Serum lipid and glycemic control variables in chow-fed obese female Zucker rats, daily oral gavage for two weeks
Format: in vivo, rat
Conditions: Rattus norvegicus, 168 h; 100 mg/kg daily oral, 1 wk; 100% = 2-fold increase; Table 8; read-out: TG, Percent Change from Pre-Treatment
OBSERVATION_TYPE: change in vivo at 100 mg/kg (%)

- CC(C)(CCCCCC(=O)CCCCCC1(C(=O)O)CC1)C(=O)O [Compound 107k]: -93
- O=C(CCCCC1(C(=O)O)CC1)CCCCC1(C(=O)O)CC1 [Compound 107d]: -51
- CC(C)(CCCCCCCC(=O)CCCCCCCC(C)(C)C(=O)O)C(=O)O [Compound 107n]: -85

----------
System: female obese Zucker rats
Assay: Serum lipid and glycemic control variables in chow-fed obese female Zucker rats, daily oral gavage for two weeks
Format: in vivo, rat
Conditions: Rattus norvegicus, 336 h; 100 mg/kg daily oral, 2 wk; 100% = 2-fold increase; Table 8; read-out: HDL-Cholesterol, Percent Change from Pre-Treatment
// returns No unless change in vivo at 100 mg/kg is strictly below 40%, in which case Yes

• O=C(CCCCC1(C(=O)O)CCC1)CCCCC1(C(=O)O)CCC1 [Compound 107f] = Yes
• CC(C)(CCCCCCCC(=O)CCCCCCCC(C)(C)C(=O)O)C(=O)O [Compound 107n] = No
• O=C(CCCCCC1(C(=O)O)CCCC1)CCCCCC1(C(=O)O)CCCC1 [Compound 107m] = Yes
• CC(C)(CCCCCC(=O)CCCCCC1(C(=O)O)CC1)C(=O)O [Compound 107k] = No
